- target: TAOK1 (human)
- experiment.description: radiometric filter-binding kinase assay, Kinase HotSpot
- run.parameters: compound 0.5 µM; ATP 10 µM
value.type: residual activity

Study these solved cases before continuing.
INSERT INTO measurements (compound, target, assay_value) VALUES
  ('Nc1nnc2[nH]c3ccccc3nc1-2', 'TAOK1 (human)', '101%'),
  ('Cc1nc2cc3nc(-c4cccs4)cnc3cc2n1C', 'TAOK1 (human)', '110%'),
  ('O=C(Nc1cccc(Nc2cc(Nc3cccc(C(F)(F)F)c3)ncn2)c1)C1CC1', 'TAOK1 (human)', '100%'),
  ('Cn1nc2c3c(cccc31)C(=O)c1ccccc1-2', 'TAOK1 (human)', '100%'),
  ('Nc1nccc(-c2c(-c3ccc(F)cc3)ncn2C2CCNCC2)n1', 'TAOK1 (human)', '92.7%'),
  ('COc1ccc(CNC(=O)Nc2ncc([N+](=O)[O-])s2)cc1', 'TAOK1 (human)', '101%');

// for each compound in input: emit residual activity
1. O=C1Nc2ccccc2/C1=C1/Nc2ccccc2/C1=N\OCCC(O)CO (stereo unspecified)
2. Cn1sc(=O)n(Cc2ccccc2)c1=O
3. CC(C)c1nn(-c2c(Cl)cccc2Cl)c2nc(Cc3ccc(OCCO)cc3)nc(O)c12
4. COc1cc2ncc(-c3ccccc3)nc2cc1OC
5. CN(C)C[C@H]1CCn2c(c(C3=C(c4cn(C)c5ccccc45)C(=O)NC3=O)c3ccccc32)C1

98.2%
88.9%
72.1%
104%
93%
